Biological target: NADPH oxidase 4 (Homo sapiens) (UniProt Q9NPH5)
Sequence (Q9NPH5 whole entry, looked up): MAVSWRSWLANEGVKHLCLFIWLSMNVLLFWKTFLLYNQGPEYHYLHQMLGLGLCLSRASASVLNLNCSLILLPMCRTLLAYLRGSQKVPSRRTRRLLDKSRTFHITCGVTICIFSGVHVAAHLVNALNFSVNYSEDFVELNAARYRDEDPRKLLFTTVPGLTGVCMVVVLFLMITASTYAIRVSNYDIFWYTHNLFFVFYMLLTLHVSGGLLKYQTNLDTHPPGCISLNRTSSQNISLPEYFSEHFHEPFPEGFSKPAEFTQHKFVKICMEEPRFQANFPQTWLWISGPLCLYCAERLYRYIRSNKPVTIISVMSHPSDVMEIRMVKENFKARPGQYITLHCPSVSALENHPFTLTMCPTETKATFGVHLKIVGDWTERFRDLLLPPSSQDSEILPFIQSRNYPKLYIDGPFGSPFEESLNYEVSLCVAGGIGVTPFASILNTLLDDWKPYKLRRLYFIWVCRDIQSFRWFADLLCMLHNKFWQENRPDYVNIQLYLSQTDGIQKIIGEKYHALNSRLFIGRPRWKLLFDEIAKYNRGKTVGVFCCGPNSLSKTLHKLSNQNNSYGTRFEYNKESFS
Test: NOX4-dependent H2O2 signal modulators, primary screen, NOX inhibitor project, cell-based, HEK293-NOX4, tetracycline-induced, Amplex Red fluorescence (AID 1160)
Conditions: 45 min, higher = more signal, called active from +8 up or from −8 down
READOUT LABEL: z-score
Numbers only.

Below, 3 compounds whose answers are already recorded.
COMPOUND	z-score
CCOC(=O)[C@H](Cc1ccccc1)NC(=O)OC1CC(CCC2CC(CC)=NO2)OC2(CCCC(COC(=O)NCCC(C)C)O2)C1 (some centres not stated)	0.109
O=C1C=C[C@@H](O)[C@@H]2[C@@H]3C(=O)N(C[C@@H]4CCCO4)C(=O)[C@@H]3CC[C@@H]12	-0.0876
CO[C@H]1COC(=O)[C@H](C)NC(=O)[C@@H](C)COC(=O)[C@H]2CCCN2C(=O)CC=C[C@H]1C	0.0917

Batch of 4 compounds: report z-score for each.
1. O=C(NN=C1C[C@@H](O)[C@@H](O)[C@@H]2[C@@H]3C(=O)N(C4CCCCC4)C(=O)[C@@H]3CC[C@H]12)OCc1ccccc1
2. COc1ccc(O[C@H]2C=C[C@@H](c3ccccc3)O[C@@H]2CON=C(C)CCN2CCc3nc(-c4ccccc4)c(-c4ccccc4)cc3C2)cc1
3. CCOC(=O)[C@H](CC(C)C)NC(=O)CCC1CC(OC(=O)NCc2cccc3ccccc23)CC2(CCCC(COC(=O)NCCOC)O2)O1 (some centres not stated)
4. C[C@@H]1CC[C@H]2C(=O)O[C@@H](Cc3ccccc3)CN2[C@H]1c1ccc(Br)cc1

-1.85
0.00405
0.96
-0.286

The measured values listed here are drawn from PubChem BioAssay.
